System: FMOC25_2 (patient-derived low-grade serous ovarian cancer cells)
Assay: drug sensitivity score (DSS3, normalised partial AUC of % inhibition dose-response) (DSS (score)); higher = more sensitive (stronger inhibition of viability); extreme values may be limits of the assay
Settings: 72 h; library: FO5A; assay format: 2D, 384-well, CellTiter-Glo
Entry flag: satisfied if drug sensitivity score reaches 2; not satisfied if it does not.

# example entries with known answers
MOLECULE	LABEL VALUE
COc1cc(OC)c(/C=C/S(=O)(=O)Cc2ccc(OC)c(NCC(=O)O)c2)c(OC)c1	satisfied
CCc1cc2c(cc1N1CCC(N3CCOCC3)CC1)C(C)(C)c1[nH]c3cc(C#N)ccc3c1C2=O	not satisfied
Cn1ncc(Cl)c1-c1cc(C(=O)N[C@H](CN)Cc2cccc(F)c2)sc1Cl	satisfied

Could you now consider this next molecule?
Enquiry: Answer whether drug sensitivity score of O=C(NCc1ccncc1)C12CC3CC(C1)CC(c1ccc(Cl)cc1)(C3)C2 is greater than or equal to 2.
Return: satisfied

---

Test system: FMOC25_2
Experiment: drug sensitivity score (DSS3, normalised partial AUC of % inhibition dose-response) (DSS (score)); higher = more sensitive (stronger inhibition of viability); extreme values may be limits of the assay
Conditions: 72 h; library: FO5A; assay format: 2D, 384-well, CellTiter-Glo
Decide using drug sensitivity score: a value greater than or equal to 8 is t, a smaller one is f.

Here's what some known entries look like.
STRUCTURE SMILES	LABEL VALUE
Cc1nc(Nc2ncc(C(=O)Nc3c(C)cccc3Cl)s2)cc(N2CCN(CCO)CC2)n1	f
COCCNCc1ccc(-c2cc3nccc(Oc4ccc(NC(=S)NC(=O)Cc5ccc(F)cc5)cc4F)c3s2)nc1	f
C[C@H](Nc1ncnc2nc[nH]c12)c1cc2cccc(Cl)c2c(=O)n1-c1ccccc1	f
CCC1=C[C@@H]2CN(C1)Cc1c([nH]c3ccccc13)[C@@](C(=O)OC)(c1cc3c(cc1OC)N(C)[C@H]1[C@@](O)(C(=O)OC)[C@H](OC(C)=O)[C@]4(CC)C=CCN5CC[C@]31[C@@H]54)C2	t

We next turn to a different compound, shown below.
Enquiry: Has Cn1cncc1[C@@](N)(c1ccc(Cl)cc1)c1ccc2c(c1)c(-c1cccc(Cl)c1)cc(=O)n2C a recorded drug sensitivity score greater than or equal to 8?
Return: t

---

System: FMOC24 (patient-derived high-grade serous ovarian cancer cells)
Assay: drug sensitivity score (DSS3, normalised partial AUC of % inhibition dose-response) (DSS (score)); higher = more sensitive (stronger inhibition of viability); extreme values may be limits of the assay
Settings: 72 h; library: FO5A; assay format: 2D, 384-well, CellTiter-Glo
READOUT TYPE: drug sensitivity score
Give bare numbers.

MOLECULE	EXPERIMENTAL VALUE
Nc1ncnc2c1nc(Cl)n2[C@@H]1O[C@H](CO)[C@@H](O)[C@H]1O	6

Working through the 2 molecules below one at a time, give drug sensitivity score for each.
1. N#Cc1ccnc(N2C(=O)CC[C@H]2C(=O)N(c2cncc(F)c2)[C@H](C(=O)NC2CC(F)(F)C2)c2ccccc2Cl)c1
2. CC(=O)[C@]1(O)Cc2c(O)c3c(c(O)c2[C@@H](O[C@H]2C[C@H](N)[C@H](O)[C@H](C)O2)C1)C(=O)c1ccccc1C3=O

Return:
[0.2, 9.4]

Take each entry in turn and give its drug sensitivity score.
1. Nc1ncnc2c1nc(N)n2[C@@H]1O[C@H](CO)[C@@H](O)[C@H]1O
2. O=C(Nc1cc(Cl)cc2c1[nH]c1cnccc12)c1cccnc1
3. COc1cc(OC)c(/C=C/S(=O)(=O)Cc2ccc(OC)c(NCC(=O)O)c2)c(OC)c1
4. C[C@@H](Nc1cc(F)cc(F)c1)c1cc(C(=O)N(C)C)cc2c(=O)cc(N3CCOCC3)oc12
5. CC(=O)N(O)CCCCCNC(=O)CCC(=O)N(O)CCCCCNC(=O)CCC(=O)N(O)CCCCCN
6. CC1(C)C(C(=O)Nc2ccc(S(=O)(=O)c3ccc(NC(=O)C4C(C)(C)C4(C)C)cc3)cc2)C1(C)C

Return:
1. 18.8
2. 2.75
3. 6.5
4. 0
5. 0
6. 1.5

Working through the 6 molecules below one at a time, give drug sensitivity score for each.
1. COC[C@H](NC(=O)c1cnc(C)s1)C(=O)N[C@@H](COC)C(=O)N[C@@H](Cc1ccccc1)C(=O)[C@@]1(C)CO1
2. Cc1cc2c(F)c(Oc3ncnn4cc(OC[C@@H](C)O)c(C)c34)ccc2[nH]1
3. CCCCNc1ncc(C(=O)NCc2ccc(-n3ccnc3)cc2)c(NC2CCC(O)CC2)n1 (stereo not drawn)
4. CN1CCN(C2CCC(n3cc(-c4ccc(Oc5ccccc5)cc4)c4c(N)ncnc43)CC2)CC1 (stereo not drawn)
5. Nc1ccccc1NC(=O)c1ccc(CNc2nccc(-c3cccnc3)n2)cc1
6. CC[C@H](NC(=O)[C@H](C)NC)C(=O)N1C[C@@H](O)C[C@H]1Cc1c(-c2[nH]c3cc(F)ccc3c2C[C@@H]2C[C@H](O)CN2C(=O)[C@H](CC)NC(=O)[C@H](C)NC)[nH]c2cc(F)ccc12

Return:
1. 20.9
2. 0
3. 0.4
4. 9.1
5. 11.4
6. 21.2

Please give drug sensitivity score, item by item, for the list that follows.
1. CCOC(=O)C1=CCCC[C@H]1S(=O)(=O)Nc1ccc(F)cc1Cl
2. COc1ncc(-c2ccc3nccc(-c4ccnnc4)c3c2)cc1NS(=O)(=O)c1ccc(F)cc1F
3. COc1cc([C@@H]2c3cc4c(cc3[C@@H](O[C@@H]3O[C@@H]5CO[C@@H](C)O[C@H]5[C@H](O)[C@H]3O)[C@H]3COC(=O)[C@H]23)OCO4)cc(OC)c1O [Etoposide]
4. CN1CCC(CNc2ccc3ncc(-c4cccc(OC(F)(F)F)c4)n3n2)CC1
5. C/C(=C\c1csc(C)n1)[C@@H]1C[C@@H]2O[C@]2(C)CCC[C@H](C)[C@H](O)[C@@H](C)C(=O)C(C)(C)[C@@H](O)CC(=O)N1 [Ixabepilone]
6. C[C@@H]1CN(CC(=O)Nc2ccc3c(c2)Cc2cccc(-c4cc(=O)cc(N5CCOCC5)o4)c2S3)C[C@H](C)O1

Return:
0
8.5
1.9
8.05
0
5.75

Quick request: drug sensitivity score for each listed item, please.
1. CC(C)[C@H](C(=O)Nc1ccc(C(=O)NO)cc1)c1ccccc1
2. CC[C@@]1(O)C(=O)OCc2c1cc1n(c2=O)Cc2cc3c(CN(C)C)c(O)ccc3nc2-1

Return:
1. 9.3
2. 7

Data provenance: the supplement of paper PMC9938120
